# procedure summary: Nuclear factor erythroid 2-related factor 2/antioxidant responsive element (Nrf2/ARE) small molecule agonists: qHTS cell viability counter screen in human keratinocytes (AID 1919968); further: nearly all actives have a fitted effect of over 55% in size
# particulars: KeratinoSens HaCaT ARE cells viability, CellTiter-Fluor, 24 h; series mostly up to 92.4 µM
Inconclusive results are not listed. Active and inactive are the calls of the source. The call rests on the fitted dose curve; in most records, active means well fitted cell-killing curve with a large enough effect in the repeat runs; inconclusive means weak or mixed curves, or effect the other way; inactive means flat fitted curve, though single readings scatter.
Lab note: assign the record to one of active, inactive

Lab log entry: CCCCCSCCCCC — outcome as called in the assay?
inactive

Lab log entry: CO[C@@H]1[C@@H](OC)[C@H](C)[C@@](O)(CC(=O)O)O[C@H]1[C@H](C)[C@H]1O[C@@]2(CC[C@@](C)([C@H]3CC[C@@](C)([C@@H]4O[C@@H]([C@H]5O[C@](C)(O)[C@H](C)C[C@@H]5C)C[C@@H]4OC4C[C@H](OC)[C@@H](OC)[C@H](C)O4)O3)O2)C[C@H](O)[C@H]1C (stereo not given in full) — outcome as called in the assay?
active

Lab log entry: CC(C)(N)C#N — outcome as called in the assay?
inactive

Lab log entry: COc1ccc2c(c1)c(CC(=O)OC/C=C(\C)CC/C=C(\C)CCC=C(C)C)c(C)n2C(=O)c1ccc(Cl)cc1 — outcome as called in the assay?
inactive

Lab log entry: Cc1nnc(SCC2=C(C(=O)O)N3C(=O)[C@@H](NC(=O)Cn4cnnn4)[C@H]3SC2)s1 — outcome as called in the assay?
inactive

Lab log entry: N#Cc1ccc(C(c2ccc(C#N)cc2)n2cncn2)cc1 — outcome as called in the assay?
inactive

Lab log entry: Cn1c(NCCN(CCO)CCCc2ccc([N+](=O)[O-])cc2)cc(=O)n(C)c1=O — outcome as called in the assay?
inactive

Lab log entry: CC(C)=CCCC(C)CC(=O)O (stereo not given) — outcome as called in the assay?
inactive

Lab log entry: COc1ccc(S(=O)(=O)Nc2nnc(CC(C)C)s2)cc1 — outcome as called in the assay?
inactive

Lab log entry: N#Cc1nc(Cl)c(Cl)c(Cl)c1Cl — outcome as called in the assay?
active

Lab log entry: C[C@]12C(=O)OC(=O)[C@H]1[C@H]1C=C[C@@H]2C1 — outcome as called in the assay?
inactive

Lab log entry: CC(C)c1ccccc1 — outcome as called in the assay?
inactive

Lab log entry: Clc1ccc(Nc2nnc(Cc3ccncc3)c3ccccc23)cc1 — outcome as called in the assay?
inactive

Lab log entry: Nc1ccc2ccccc2c1S(=O)(=O)O — outcome as called in the assay?
inactive

Lab log entry: CCCCCCCCS(=O)(=O)O — outcome as called in the assay?
inactive

Lab log entry: COc1nccnc1CC(C)C — outcome as called in the assay?
inactive

Lab log entry: CCOC(=O)C1=NN(c2ccccc2)C(=O)C1 — outcome as called in the assay?
inactive

Lab log entry: O=C1CCCCC1C1CCCCC1 (stereo not given) — outcome as called in the assay?
inactive

Lab log entry: O=C(O)CCCCCCCCCC(=O)O — outcome as called in the assay?
inactive

Lab log entry: CCCCCCCC/C=C\CCCCCCCC(=O)OCCO — outcome as called in the assay?
inactive

Lab log entry: Cc1c(-c2ccccc2)oc2c(C(=O)OCCN3CCCCC3)cccc2c1=O — outcome as called in the assay?
inactive

Lab log entry: CCc1oc2ccccc2c1C(=O)c1cc(I)c(O)c(I)c1 — outcome as called in the assay?
active

Lab log entry: CC(C)CO — outcome as called in the assay?
inactive

Lab log entry: CCCCCCCC#N — outcome as called in the assay?
inactive

Lab log entry: CC(C)Nc1ccc(NC(C)C)c2c1C(=O)c1ccccc1C2=O — outcome as called in the assay?
inactive
